- Method summary: liver-stage malaria parasite growth inhibition, primary screen, cell-based, HepG2, luciferase luminescence, HepG2 viability (AID 624349);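 further: 100% = mean of DMSO negative control wells on the same plate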
- Condition summary: P. berghei liver stage in HepG2, luciferase luminescence, concentration not given here; stronger effect = lower value
Lab note: cut-off is 40%. Strictly less in parasite load remaining is yes. Exactly 40% or more is no.

Compound: C=C[C@H]1CN2CC[C@H]1C[C@@H]2[C@@H](O)c1ccnc2ccccc12
Class label: no

Compound: CN1C(=O)CN=C(c2ccccc2)c2cc(Cl)ccc21
Class label: no

Compound: C[C@H]1O[C@@H](OC2CC[C@]3(C=O)[C@H]4CC[C@]5(C)[C@@H](C6=CC(=O)OC6)CC[C@]5(O)[C@@H]4CC[C@]3(O)C2)C[C@H](O)[C@@H]1O (some centres undefined)
Class label: yes

Compound: COP(=S)(OC)Oc1ccc(Sc2ccc(OP(=S)(OC)OC)cc2)cc1
Class label: yes

Compound: CC(=O)OCC(=O)[C@H]1CC[C@H]2[C@@H]3CC[C@H]4C[C@H](O)CC[C@]4(C)[C@H]3C(=O)C[C@]12C
Class label: no

Request: Consider the compound CCNCC(O)c1cccc(O)c1 (centres undefined) . Is its parasite load remaining strictly less than 40%?
Result: no

Request: Consider the compound C[N+]1([O-])[C@@H]2CC[C@H]1CC(OC(=O)C(CO)c1ccccc1)C2 (some centres undefined) . Is its parasite load remaining strictly less than 40%?
Result: no

Request: Consider the compound Oc1ccc2c3c1O[C@H]1c4oc5ccccc5c4C[C@@]4(O)[C@@H](C2)N(CC2CC2)CC[C@]314 . Is its parasite load remaining strictly less than 40%?
Result: yes

---

- System under test: 6-phosphogluconate dehydrogenase, decarboxylating (Homo sapiens) (UniProt P52209)
- Sequence (P52209 whole entry, looked up): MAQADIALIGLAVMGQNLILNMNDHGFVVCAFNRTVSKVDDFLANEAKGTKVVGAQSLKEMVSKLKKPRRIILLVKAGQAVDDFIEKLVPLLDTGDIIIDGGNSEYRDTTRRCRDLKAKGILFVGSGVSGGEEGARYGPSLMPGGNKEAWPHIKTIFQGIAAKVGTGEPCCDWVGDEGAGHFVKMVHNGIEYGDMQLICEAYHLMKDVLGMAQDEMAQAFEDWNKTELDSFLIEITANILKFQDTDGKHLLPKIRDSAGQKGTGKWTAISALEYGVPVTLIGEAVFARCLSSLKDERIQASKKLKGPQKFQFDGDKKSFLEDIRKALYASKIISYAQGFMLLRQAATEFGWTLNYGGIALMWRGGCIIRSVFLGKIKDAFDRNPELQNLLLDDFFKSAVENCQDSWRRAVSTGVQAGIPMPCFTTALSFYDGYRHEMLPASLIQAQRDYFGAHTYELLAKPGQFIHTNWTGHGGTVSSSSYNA
- Method summary: 6PGD enzyme inhibitors, primary screen, biochemical, human, recombinant enzyme, NADPH absorbance (AID 1159550)
- Condition summary: recombinant 6PGD, NADPH absorbance 341 nm; at 10 µM; stronger effect = higher value
A collection of compounds and their measured inhibition
Give the number; % is assumed, so skip it.

The following compounds have reported results that may help.
Compound: COc1cc(OC)c2c(c1)O[C@H](c1ccc(OC)c(OC)c1)[C@@H](O)C2
Unit descriptor: %
inhibition: 14.9
//
Compound: C[C@H]1CCCC(=O)CCC/C=C/c2cc(O)cc(O)c2C(=O)O1
Unit descriptor: %
inhibition: 15.7

Reading of inhibition for CC(=O)OC1CC2(C)C(c3ccoc3)CC3OC32C2(C)C(=O)C(O)=C3C(C)(C)C(=O)C=CC3(C)C12 (stereo unspecified) with 6-phosphogluconate dehydrogenase, decarboxylating (Homo sapiens) (UniProt P52209): 9.52

Reading of inhibition for O=c1c2ccccc2[se]n1-c1ccccc1 with 6-phosphogluconate dehydrogenase, decarboxylating (Homo sapiens) (UniProt P52209): 51.1

Reading of inhibition for COc1ccc(C(CN(C)C)C2(O)CCCCC2)cc1 (stereo unspecified) with 6-phosphogluconate dehydrogenase, decarboxylating (Homo sapiens) (UniProt P52209): -0.228

Reading of inhibition for COc1cc([C@@H]2c3cc4c(cc3[C@H](OC(C)=O)[C@H]3COC(=O)[C@@H]23)OCO4)cc(OC)c1OC with 6-phosphogluconate dehydrogenase, decarboxylating (Homo sapiens) (UniProt P52209): -3.31

Reading of inhibition for Clc1ccc(C(c2ccc(Cl)cc2)C(Cl)(Cl)Cl)cc1 with 6-phosphogluconate dehydrogenase, decarboxylating (Homo sapiens) (UniProt P52209): 4.6

Reading of inhibition for Clc1ccc(C(OCCN2CCCCC2)c2ccccc2)cc1 (stereo unspecified) with 6-phosphogluconate dehydrogenase, decarboxylating (Homo sapiens) (UniProt P52209): 14.2

Reading of inhibition for CCC(N)C(O)c1ccc(O)c(O)c1 (stereo unspecified) with 6-phosphogluconate dehydrogenase, decarboxylating (Homo sapiens) (UniProt P52209): -10.4

Reading of inhibition for COc1ccc(C(c2ccc(OC)cc2)C(Cl)(Cl)Cl)cc1 with 6-phosphogluconate dehydrogenase, decarboxylating (Homo sapiens) (UniProt P52209): -1.01

Reading of inhibition for COc1cc2c(cc1OC)C(C)NCC2 (stereo unspecified) with 6-phosphogluconate dehydrogenase, decarboxylating (Homo sapiens) (UniProt P52209): -13.1

---

- Method summary: sensitizers of A549 cells to miR-34 induction, primary screen, imaging, A549 dox-inducible miR-34, nuclei and caspase counts (AID 1347080)
- Condition summary: A549 miR-34 inducible, Hoechst nuclei count, 48 h; stronger effect = lower value
Attribute measured: fold change
// print number alone

Compound: C[C@]12CCC(=O)C=C1C=C[C@@H]1[C@@H]2CC[C@@]2(C)[C@H]1CC[C@@]2(O)CCC(=O)O
fold change: 0.935
--
Compound: NCc1cccnc1
fold change: 0.867
--
Compound: C=C1C/C(=C/C)C(=O)O[C@@H]2CCN3CC=C(COC(=O)[C@]1(C)O)[C@H]23
fold change: 0.88
--
Compound: NC(CCP(=O)(O)O)C(=O)O (stereo not given)
fold change: 1.04
--
Compound: N#CC(OC1OC(COC2OC(CO)C(O)C(O)C2O)C(O)C(O)C1O)c1ccccc1 (stereo not given)
fold change: 0.82

Let us move to another entry and its fold change.
What the record says about CC(C)(N)Cc1ccccc1 : fold change is 0.89

---

A collection of compounds and their measured inhibition
- Method summary: UWB1.289 ovarian carcinoma cell growth inhibition, synergistic combos for chromothripsis tumors, BGB or cisplatin combos (AID 1671456);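 further: cells exposed to compound for four days; 0% = vehicle DMSO and 100% = killing by high DMSO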
- Condition summary: UWB1.289 ovarian carcinoma cells, at 0.5 µM, stronger effect = higher value
Give the number; % is assumed, so skip it.

The following compounds have reported results that may help.
Compound: O=C(O)CCCc1ccc(N(CCCl)CCCl)cc1
inhibition (%): -7.41
//
Compound: CN(C)NC(=O)CCC(=O)O
inhibition (%): -6.42
//
Compound: CC1(C)C(C(=O)Nc2ccc(S(=O)(=O)c3ccc(NC(=O)C4C(C)(C)C4(C)C)cc3)cc2)C1(C)C
inhibition (%): -16.5

What the record says about Cn1c(COP(=O)(NCCBr)NCCBr)cnc1[N+](=O)[O-] : inhibition is 3.29

What the record says about O=C1CCC[C@@H]2[C@H]3CCCN4CCC[C@@H](CN12)[C@@H]34 : inhibition is 2.22

What the record says about O=c1[nH]c(=O)n(C2OC(CO)C(O)C2O)cc1F (centres undefined) : inhibition is 33.5

What the record says about Cc1c2ccncc2c(C)c2c1[nH]c1ccccc12 : inhibition is 18

What the record says about O=P(O)(NCCCl)NCCCl : inhibition is -15.1

What the record says about Cn1c(CCCC(=O)O)nc2cc(N(CCCl)CCCl)ccc21 : inhibition is -2.34

---

A collection of compounds and their measured growth inhibition
- Method summary: antimalarial activity against Dd2 strain (AID 2302);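 further: 0% = DMSO untreated growth and 100% = chloroquine plus artemisinin killed control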
- Condition summary: P. falciparum Dd2 in RBCs, LDH growth readout, 72 h; at 2 µM; stronger effect = higher value
Calls of active or inactive are those of the source.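 The calls were made as follows: active = growth inhibition above 50% at the single 2 µM test dose, taken to imply half-maximal potency below 2 µM; inactive = the rest.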

The following compounds have reported results that may help.
Compound: COC(=O)/C=C/c1ccc(CC(C)NCC(O)c2cccc(Cl)c2)cc1 (centres undefined)
Obs value: 73% (active)

Compound: CN(c1cc(NC(=O)c2ccc(F)cc2)ccn1)C1CCN(Cc2cccc(C#N)c2)CC1
Obs value: 83% (active)

Compound: O=C(CCc1ccco1)NC1CCN(CC2(c3ccc(Cl)cc3)CCC2)CC1
Obs value: 67% (active)

Compound: Oc1cccc(C2CCCN(CCc3c[nH]c4ccccc34)C2)c1 (centres undefined)
Obs value: 40% (inactive)

Compound: O=C(/C=C/c1ccc(Cl)c(Cl)c1)N1CCC(CN2CCC(c3c[nH]c4ccc(NS(=O)(=O)c5cccs5)cc34)CC2)CC1
Obs value: 100% (active)

Compound: CCC1CN2CCc3cc(OC)c(OC)cc3C2CC1CC1NCCc2c1[nH]c1ccc(O)cc21 (centres undefined)
Obs value: 100% (active)

Compound: CC[C@H]1CN2CC[C@H]1C[C@H]2[C@H](O)c1cc(/C=C/c2ccc(F)cc2)nc2ccc(OC)cc12
Obs value: 99% (active)

Compound: c1ccc2c(NCCCCCCNc3c4ccccc4nc4ccccc34)c3ccccc3nc2c1
Obs value: 80% (active)

Let us move to another entry and its growth inhibition.
What the record says about CCOC(=O)c1c(CN2CCN(C)CC2)n(Cc2ccccc2)c2cc(Br)c(O)cc12 : growth inhibition is 46% (inactive)

---

- Method summary: decreased DLD-1 cellular survival, CellTiter-Glo luminescent readout, NPC compound collection, primary HTS (AID 1117346)
- Condition summary: DLD-1 viability, CellTiter-Glo luminescence; at 20 µM (top of the series)
Attribute measured: viability decrease (inhibition) (%)
Give the number; % is assumed, so skip it.

Compound: C[C@]12CC[C@H]3[C@@H](CC=C4C[C@@H](O)CC[C@@]43C)[C@@H]1CC[C@@H]2O
viability decrease (inhibition), %: 1.05
//
Compound: CC(C)=CC1C(C(=O)OCN2C(=O)C3=C(CCCC3)C2=O)C1(C)C (configuration not stated)
viability decrease (inhibition), %: 5
//
Compound: O=C(O)CCCc1ccc(N(CCCl)CCCl)cc1
viability decrease (inhibition), %: 2.6

What the record says about c1ccc(N2CCNCC2)cc1 : viability decrease (inhibition) is -5.9

What the record says about NCCc1cc(O)c(O)cc1O : viability decrease (inhibition) is 78.2
